Listed molecules paired with reported pIC50
target: human VPS34 (Homo sapiens (Human), UniProt Q8NEB9); assay: Human VPS34 enzyme assay (Adapta TR-FRET ADP detection); assay type: biochemical; settings: IC50 range class
Sequence (Q8NEB9 whole entry): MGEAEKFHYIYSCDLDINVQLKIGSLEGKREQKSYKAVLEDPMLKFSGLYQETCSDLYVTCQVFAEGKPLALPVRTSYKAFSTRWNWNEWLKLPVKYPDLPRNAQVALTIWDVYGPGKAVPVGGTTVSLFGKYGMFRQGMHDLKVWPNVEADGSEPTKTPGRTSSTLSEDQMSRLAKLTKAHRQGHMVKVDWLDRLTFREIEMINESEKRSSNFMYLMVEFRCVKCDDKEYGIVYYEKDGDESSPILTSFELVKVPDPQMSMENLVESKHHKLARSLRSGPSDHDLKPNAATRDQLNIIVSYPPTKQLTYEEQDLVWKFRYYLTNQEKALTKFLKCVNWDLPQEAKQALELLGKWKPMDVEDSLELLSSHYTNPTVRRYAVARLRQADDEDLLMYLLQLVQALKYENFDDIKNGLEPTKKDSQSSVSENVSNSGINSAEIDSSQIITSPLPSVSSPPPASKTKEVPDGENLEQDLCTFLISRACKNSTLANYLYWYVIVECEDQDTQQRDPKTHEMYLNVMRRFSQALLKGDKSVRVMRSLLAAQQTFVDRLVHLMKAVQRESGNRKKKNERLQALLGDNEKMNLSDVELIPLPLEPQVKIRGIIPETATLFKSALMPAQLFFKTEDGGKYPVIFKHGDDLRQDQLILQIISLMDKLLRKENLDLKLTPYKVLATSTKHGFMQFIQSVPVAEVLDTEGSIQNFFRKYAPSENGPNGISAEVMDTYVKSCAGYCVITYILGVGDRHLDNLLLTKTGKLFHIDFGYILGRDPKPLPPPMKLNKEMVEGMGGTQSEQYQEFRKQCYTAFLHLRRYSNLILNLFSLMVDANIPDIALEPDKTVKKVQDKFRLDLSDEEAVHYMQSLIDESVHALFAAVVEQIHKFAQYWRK
pIC50: −log10 of the molar value.

# cpdSmiles, studySystem, pIC50
data = [
    ("CC(=O)Nc1cc(-c2cnc(C)c(NS(=O)(=O)N3CCC(F)(F)CC3)c2)ccn1", "human VPS34 (Homo sapiens (Human), UniProt Q8NEB9)", "7.30 to 8.00"),
    ("CC(=O)Nc1cc(-c2cnc(Cl)c(NS(=O)(=O)c3ccccc3)c2C)ccn1", "human VPS34 (Homo sapiens (Human), UniProt Q8NEB9)", "7.30 to 8.00"),
    ("Cc1ncc(-c2ccnc(Nc3ccnc(C4CC4)n3)c2)cc1NC(=O)N1CC(F)(F)C1", "human VPS34 (Homo sapiens (Human), UniProt Q8NEB9)", "7.30 to 8.00"),
    ("CCOc1cc(-c2ccnc(Nc3ccnc(C)n3)c2)cnc1C", "human VPS34 (Homo sapiens (Human), UniProt Q8NEB9)", "7.30 to 8.00"),
    ("CC(=O)Nc1cc(-c2cnc3c(c2)NS(=O)(=O)N3CC2CC2)ccn1", "human VPS34 (Homo sapiens (Human), UniProt Q8NEB9)", "< 7.00"),
    ("CC(=O)Nc1cc(-c2cncc(N(C)S(C)(=O)=O)c2)ccn1", "human VPS34 (Homo sapiens (Human), UniProt Q8NEB9)", "7.00 to 7.30"),
    ("CCCCN(CCCC)S(=O)(=O)Nc1cc(-c2ccnc(NC(C)=O)c2)cnc1C", "human VPS34 (Homo sapiens (Human), UniProt Q8NEB9)", "> 8.00"),
    ("CC(=O)Nc1cc(-c2cnc3[nH]cc(S(=O)(=O)N(C)C)c3c2)ccn1", "human VPS34 (Homo sapiens (Human), UniProt Q8NEB9)", "> 8.00"),
]

====

target: human VPS34 (Homo sapiens (Human)); test: Human VPS34 enzyme assay (Adapta TR-FRET ADP detection); format: biochemical; set-up: dose or concentration left out as unconfirmed

# molecule, Percent Inhibition
data = [
    ("CC(=O)Nc1cc(-c2cnc(N)c(S(=O)(=O)NCC(C)C)c2)ccn1", ">99%"),
    ("Cc1ncc(-c2ccnc(NC(=O)C3CC3(F)F)c2)cc1NS(=O)(=O)N(C)C (single isomer, unassigned) [Compound I-498]", "83%"),
    ("CNc1ncc(-c2ccnc(NC(C)=O)c2)cc1NS(=O)(=O)c1ccc(F)cc1F", ">99%"),
    ("CC(=O)Nc1cc(-c2cnc(C)c(NS(=O)(=O)c3cc(F)ccc3F)c2)ccn1", ">99%"),
    ("CC(=O)Nc1cc(-c2cnc(C)c(NS(=O)(=O)c3nccn3C)c2)ccn1", ">99%"),
    ("CC(=O)Nc1cc(-c2cnc(N)c(S(=O)(=O)CC3CC3)c2)ccn1", ">99%"),
    ("Cc1nc(Nc2cc(-c3cnc(Cl)c(NS(=O)(=O)c4ccc(F)cc4F)c3C)ccn2)ccc1C#N", "93%"),
    ("Cc1cc(Nc2cc(-c3cnc(Cl)c(NS(=O)(=O)c4ccc(F)cc4F)c3C)ccn2)nc(C)n1", ">99%"),
    ("CC(=O)Nc1cc(-c2cnc(Cl)c(S(=O)(=O)N[C@H](CO)c3ccccc3)c2)ccn1", ">99%"),
    ("CC(=O)Nc1cc(-c2cnc(C)c(NS(=O)(=O)c3cccc(Cl)c3Cl)c2)ccn1", ">99%"),
    ("Cc1ncc(-c2ccnc(NC(=O)C3CC3(F)F)c2)cc1NS(=O)(=O)N(C)C (single isomer, unassigned) [Compound I-499]", ">99%"),
    ("Cc1nccc(Nc2cc(-c3cnc(N)c(C(=O)N(C)C45CC(C4)C5)c3)ccn2)n1", "100%"),
    ("CCc1c(-c2ccnc(Nc3ccnc(C)n3)c2)cnc(Cl)c1NS(=O)(=O)c1ccc(F)cc1F", "79%"),
    ("CC(=O)Nc1cc(-c2ccnc(Nc3ccnc(C4CC4)n3)c2)cn2nccc12", ">99%"),
    ("CC(=O)Nc1cc(-c2cc(N(C)S(C)(=O)=O)c(C)[n+]([O-])c2)ccn1", "100%"),
    ("Cc1c(-c2ccnc(N)c2)cnc(Cl)c1NS(=O)(=O)c1ccc(F)cc1F", "91%"),
]
